protocol: Mycobacterium tuberculosis growth inhibition, primary screen (AID 1259343)
condition-info: at 10 µM, hits give high values
Screen size: about 6,200 compounds; about 2,900 (47%) were called active. The set was probably picked from earlier hits. Some of the results follow.
Rule: fulfilled for inhibition not less than 80%, not fulfilled for anything less.

Problem: Record CCc1cc(=O)[nH]c(-n2nc(C)cc2NC(=O)c2cc(=O)c3ccccc3o2)n1 ; criterion: inhibition no lower than 80%. Met?
Solution: not fulfilled

Problem: Record OCC1(CCOc2ccccc2)CCN(Cc2cc3ccccc3o2)CC1 ; criterion: inhibition no lower than 80%. Met?
Solution: not fulfilled

Problem: Record CCc1cc(=O)[nH]c(-n2nc(C)cc2NC(=O)c2ccc(Br)o2)n1 ; criterion: inhibition no lower than 80%. Met?
Solution: fulfilled

Problem: Record COC(=O)C(C)OC(=O)c1c[nH]c2cc(Br)c(Br)cc12 (stereo unspecified) ; criterion: inhibition no lower than 80%. Met?
Solution: not fulfilled

Problem: Record CCCc1cc(=O)[nH]c(-n2nc(C)cc2NC(=O)c2ccco2)n1 ; criterion: inhibition no lower than 80%. Met?
Solution: fulfilled

Problem: Record FC(F)(F)c1cc(NCC2CC2)c2ccccc2n1 ; criterion: inhibition no lower than 80%. Met?
Solution: not fulfilled

Problem: Record Cc1cc(=O)[nH]c(-n2nc(C3CC3)cc2NC(=O)c2ccco2)n1 ; criterion: inhibition no lower than 80%. Met?
Solution: not fulfilled

Problem: Record COc1ccccc1-c1noc2nc(OCc3ccccc3)ccc12 ; criterion: inhibition no lower than 80%. Met?
Solution: fulfilled

Problem: Record Cc1ccc(Cl)cc1N1CCN(C(=O)Nc2nncs2)CC1 ; criterion: inhibition no lower than 80%. Met?
Solution: not fulfilled

Problem: Record CC(C)(C)c1nc(COc2cccc3c2CCCC3O)no1 (stereo unspecified) ; criterion: inhibition no lower than 80%. Met?
Solution: not fulfilled

====

protocol: Mycobacterium tuberculosis growth inhibition, primary screen (AID 1259343)
condition-info: at 10 µM, hits give high values
About 2,900 (47%) of roughly 6,200 compounds were called active. So high a share suggests a set chosen from earlier hits. The list shows a part of the results.
Please provide measured inhibition for the entries that follow.
State just the number; it will be interpreted in %.

Problem: Identify measured inhibition associated with Cn1nnc2c(Nc3ccc(Oc4ccccc4)cc3)ncnc21
Solution: 53.9

Problem: Identify measured inhibition associated with Fc1ccc(-c2cnn3c(NCc4cccc(Cl)c4)ccnc23)cc1Cl
Solution: 57.7

Problem: Identify measured inhibition associated with Fc1ccc(CSCc2csc(-c3ccc(F)cc3)n2)cc1
Solution: 38.6

Problem: Identify measured inhibition associated with COc1cc(C=Nc2ccc3ncccc3c2)cc(OC)c1OC
Solution: -5.15

Problem: Identify measured inhibition associated with CN(Cc1cccc(NC(=O)C(C)(C)C)c1)C(=O)C(F)(F)F
Solution: 4.53

Problem: Identify measured inhibition associated with O=C(Nc1nc2c(Br)cccc2s1)Nc1c(F)cccc1F
Solution: 28.4

Problem: Identify measured inhibition associated with Cn1nnc2c(Nc3ccc(Nc4ccccc4)cc3)ncnc21
Solution: 9.73

Problem: Identify measured inhibition associated with O=c1nc(SC/C=C/c2ccccc2)nc2ccccn12
Solution: -19.1

Problem: Identify measured inhibition associated with CCOc1ccc(Nc2ncnc3c2nnn3C)cc1
Solution: 16.3

Problem: Identify measured inhibition associated with c1csc(-c2nc(SCC3COc4ccccc4O3)n[nH]2)c1 (configuration not stated)
Solution: -27.5

Problem: Identify measured inhibition associated with OC[C@@H](O)CN(CCC(F)(F)F)c1nc(-c2ccccn2)nc2c1CCC2
Solution: -1.45

Problem: Identify measured inhibition associated with COc1ccc(OCc2nc(CSCc3ccc(F)cc3)cs2)cc1
Solution: 50.8

====

Please provide measured inhibition for the entries that follow.
protocol: Mycobacterium tuberculosis growth inhibition, primary screen (AID 1259343)
condition-info: at 10 µM, hits give high values
Screen size: about 6,200 compounds; about 2,900 (47%) were called active. So high a share suggests a set chosen from earlier hits. The list shows a part of the results.
State just the number; it will be interpreted in %.

Problem: Identify measured inhibition associated with O=S(=O)(c1ccc(Cl)s1)N1CCCc2cccc(O)c21
Solution: 43.4

Problem: Identify measured inhibition associated with CC(C)Oc1ccc(-c2cc(C(=O)NN=Cc3cccs3)[nH]n2)cc1
Solution: 68.8

Problem: Identify measured inhibition associated with Cc1ccc(/C=C/c2nc3scc(CC(C)C)c3c(=O)[nH]2)s1
Solution: -12.6

Problem: Identify measured inhibition associated with Cn1nc([N+](=O)[O-])nc1Oc1ccc(Br)cc1
Solution: 68.9

Problem: Identify measured inhibition associated with Cc1cc(=O)[nH]c(-n2nc(-c3cccs3)cc2NC(=O)c2cccs2)n1
Solution: 98.9

Problem: Identify measured inhibition associated with COc1ccc(-c2cc(C(=O)NN=Cc3ccc(Br)cc3)[nH]n2)cc1
Solution: 36.8

Problem: Identify measured inhibition associated with CCc1c(C)nc(-c2cccc(C(F)(F)F)c2)nc1N1CCNCC1
Solution: 33.2

Problem: Identify measured inhibition associated with OCC1(Cc2cccc(C(F)(F)F)c2)CCN(c2ccc3ccccc3n2)CC1
Solution: 22.1

Problem: Identify measured inhibition associated with CN(N=Cc1ccc([N+](=O)[O-])o1)c1ccccc1
Solution: -45.3

Problem: Identify measured inhibition associated with CC(C)c1cc(=O)[nH]c(-n2nc(-c3cccs3)cc2NC(=O)c2cccs2)n1
Solution: 99.1

Problem: Identify measured inhibition associated with FC(F)(F)c1cccc(N2CCC(N=Cc3ccccc3C(F)(F)F)=N2)c1
Solution: 50.2

Problem: Identify measured inhibition associated with CCC(=O)Nc1cc(-c2cccs2)nn1-c1nc(C)cc(=O)[nH]1
Solution: 99.9

Problem: Identify measured inhibition associated with Cc1cccc(C(=O)Nc2cc(-c3cccs3)nn2-c2nc(C)cc(=O)[nH]2)c1
Solution: 0.07

Problem: Identify measured inhibition associated with FC(F)(F)c1cccc(N2CCC(N=Cc3ccccn3)=N2)c1
Solution: 93.2

Problem: Identify measured inhibition associated with C(=NC1=NN(c2ccccc2)CC1)N1CCCCCC1
Solution: -7.42

Problem: Identify measured inhibition associated with Cc1ccc(Cc2nsc(N3CCN(c4cccc(C(F)(F)F)c4)CC3)n2)cc1
Solution: 24.1

Problem: Identify measured inhibition associated with O=c1cc(O)c2sc3nc(C4CC4)cc(C(F)(F)F)c3c2[nH]1
Solution: 38.2

Problem: Identify measured inhibition associated with CCc1ccc(C(=O)NCc2cccc(C(=O)Nc3ccncc3)c2)o1
Solution: 51.8

Problem: Identify measured inhibition associated with Cc1cc(=O)[nH]c(-n2nc(-c3cccs3)cc2NC(=O)CC(C)(C)C)n1
Solution: -0.63

Problem: Identify measured inhibition associated with Cc1cc(N2CCNCC2)nc(-c2ccc(C(F)(F)F)cc2)n1
Solution: 82

Problem: Identify measured inhibition associated with Cc1cc(N2CCNCC2)nc(-c2cccc(C(F)(F)F)c2)n1
Solution: 94.4

Problem: Identify measured inhibition associated with CCc1c(C)nc(-c2ccc(C(F)(F)F)cc2)nc1N1CCNCC1
Solution: 61.7

====

protocol: Mycobacterium tuberculosis growth inhibition, primary screen (AID 1259343)
condition-info: at 10 µM
Hit rate of the full screen: of about 6,200 compounds, about 2,900 (47%) were called active. Cut-off read from the data, not from the text of the source: active = inhibition above about 50%; inactive = the rest. So high a share suggests a set chosen from earlier hits. The list shows a part of the results.
Allowed answers: 1 (yes) for active, 0 (no) for inactive

Problem: Any idea what this test logged for COc1ccc(NC(=O)CSc2nc(CC(=O)NCCC3=CCCCC3)cs2)cc1 ?
Solution: 1 (yes)

Problem: Any idea what this test logged for FC(F)(F)c1ccc(Oc2ccc3c(C4CC4)noc3n2)cn1 ?
Solution: 1 (yes)

Problem: Any idea what this test logged for c1ccc(N2CCC(=NC3=NCCCCC3)N2)cc1 ?
Solution: 0 (no)

Problem: Any idea what this test logged for CCOc1cc(C=CC(=O)c2ccc(Cl)cc2)ccc1O ?
Solution: 1 (yes)

Problem: Any idea what this test logged for NC(=S)N=C1CCN(c2ccccc2)N1 ?
Solution: 1 (yes)

Problem: Any idea what this test logged for Cc1cccc(N2CCC(=NC(N)=S)N2)c1 ?
Solution: 0 (no)

Problem: Any idea what this test logged for CN(Cc1ccsc1)C(=O)Nc1ccc(C(F)(F)F)cc1 ?
Solution: 0 (no)

Problem: Any idea what this test logged for CC(C)c1noc(C(C)Nc2ccc3c(c2)CCO3)n1 (configuration not stated) ?
Solution: 0 (no)

Problem: Any idea what this test logged for CCOC(=O)c1c(NC(=O)CCl)sc(C(=O)OC)c1CC(=O)OC ?
Solution: 0 (no)

Problem: Any idea what this test logged for Cc1cc(C)cc(NC(=O)CSc2nc(=O)n3ccc(C)cc3n2)c1 ?
Solution: 0 (no)

Problem: Any idea what this test logged for COc1ccc2c(=O)c3c(=O)n(-c4ccccc4)c(C4CCCCC4)nc3oc2c1 ?
Solution: 0 (no)

Problem: Any idea what this test logged for CCOc1c(Br)cc(C=CC(=O)c2ccc(OC)cc2)cc1OC ?
Solution: 0 (no)

Problem: Any idea what this test logged for c1nc(NC2CCCCCC2)c2c3c(sc2n1)CCC3 ?
Solution: 1 (yes)

Problem: Any idea what this test logged for COc1ccc(CN(C)C(=O)NCC2Cc3ccccc3O2)cc1 (configuration not stated) ?
Solution: 0 (no)

Problem: Any idea what this test logged for c1nc(NN=C2C3CC4CC(C3)CC2C4)c2c3c(sc2n1)CCC3 ?
Solution: 1 (yes)

Problem: Any idea what this test logged for Cc1nc(C)c(CN2CCC(C(=O)Nc3ccc(Oc4ccccc4F)cc3)CC2)nc1C ?
Solution: 1 (yes)

Problem: Any idea what this test logged for CCN1CCN(c2cc3c(cc2F)c(=O)c(C(=O)O)cn3C2CC2)CC1 ?
Solution: 1 (yes)

Problem: Any idea what this test logged for C1=C(CCNc2ncnc3sc4c(c23)CCC4)CCCC1 ?
Solution: 1 (yes)

Problem: Any idea what this test logged for CNc1nc2cnc(Nc3ccc(Oc4ccccc4)cc3)cc2n1CCOC ?
Solution: 1 (yes)

Problem: Any idea what this test logged for CN(Cc1ccc(F)cc1F)C(=O)NCc1ccccc1 ?
Solution: 1 (yes)

Problem: Any idea what this test logged for COc1ccc(NC(C)c2nc(-c3ccco3)no2)cc1 (configuration not stated) ?
Solution: 1 (yes)

Problem: Any idea what this test logged for Cc1cc(N)n(CC(=O)NCCn2c(C)cc3ccccc32)n1 ?
Solution: 0 (no)

Problem: Any idea what this test logged for Cc1ccc(CNC(=O)N(C)Cc2cccs2)cc1F ?
Solution: 1 (yes)

Problem: Any idea what this test logged for COc1cccc(-c2ccc(NC(=O)C3CCCN(Cc4cnc(N(C)C)s4)C3)cc2)c1 (configuration not stated) ?
Solution: 0 (no)

Problem: Any idea what this test logged for O=C(Nc1cccc(-c2cccc(F)c2)c1)C1CCN(CCCn2cccn2)CC1 ?
Solution: 1 (yes)

Problem: Any idea what this test logged for O=C(NCCc1cccs1)C(=O)NCc1cccc(F)c1 ?
Solution: 0 (no)

Problem: Any idea what this test logged for COc1ccc(Cl)cc1CN(C)C(=O)Nc1ccc(F)cc1F ?
Solution: 0 (no)

Problem: Any idea what this test logged for Cc1cc(C)cc(NC(=O)CSc2nccn(-c3ccc(F)cc3)c2=O)c1 ?
Solution: 0 (no)

Problem: Any idea what this test logged for COC(=O)c1sc(NC(=O)CCCl)c(C(=O)OC)c1C ?
Solution: 1 (yes)

Problem: Any idea what this test logged for COc1cccc(CNC(=O)N(C)Cc2ccc(C(C)C)cc2)c1 ?
Solution: 1 (yes)

Problem: Any idea what this test logged for CC(NCc1cn[nH]c1-c1ccc(-c2ccccc2)cc1)c1ccc(F)cc1 (configuration not stated) ?
Solution: 1 (yes)

Problem: Any idea what this test logged for N#CCc1cccc(C(=O)Nc2cc(F)cc(N3CCCC3)c2)c1 ?
Solution: 1 (yes)

Problem: Any idea what this test logged for c1csc(CCNc2ncnc3sc4c(c23)CCC4)c1 ?
Solution: 0 (no)

Problem: Any idea what this test logged for COc1cc2c(cc1OC)CN(C(=O)CCl)CC2 ?
Solution: 1 (yes)

Problem: Any idea what this test logged for Cc1cc(C)cc(NC(=O)CSc2nccn(-c3cccc(F)c3)c2=O)c1 ?
Solution: 1 (yes)

Problem: Any idea what this test logged for CC(NCc1nnc(-c2cccc(Br)c2)o1)c1cccc(F)c1 (configuration not stated) ?
Solution: 0 (no)

Problem: Any idea what this test logged for Cc1sc(NC(=O)CC(C)(C)CC(=O)Nc2sc(C)c(C)c2C(=O)O)c(C(=O)O)c1C ?
Solution: 0 (no)

Problem: Any idea what this test logged for COCc1nc(NCCC2=CCCCC2)c2cnn(C)c2n1 ?
Solution: 0 (no)

Problem: Any idea what this test logged for CC(NCc1ccco1)c1nnc(-c2ccc(F)cc2)o1 (configuration not stated) ?
Solution: 0 (no)

Problem: Any idea what this test logged for c1cn(-c2ccc(Oc3ccc4c(C5CC5)noc4n3)cc2)cn1 ?
Solution: 0 (no)

Problem: Any idea what this test logged for Cc1cc(N2CCCC2)ccc1NC(=O)c1cccc(NC(=O)OC(C)(C)C)c1 ?
Solution: 0 (no)

Problem: Any idea what this test logged for Cc1cc(C)n(-c2nc3c(c(=O)n2CC(=O)NC2CCCC2)CCCC3)n1 ?
Solution: 1 (yes)

Problem: Any idea what this test logged for CCCCCNc1ncnc2sc3c(c12)CCCC3 ?
Solution: 0 (no)

Problem: Any idea what this test logged for Cc1ccc(NC(=O)N(C)Cc2ccccc2F)cc1Cl ?
Solution: 0 (no)

Problem: Any idea what this test logged for CC1(C)CC(=O)C(Sc2ccc(Br)cc2)=C(O)C1 ?
Solution: 1 (yes)

Problem: Any idea what this test logged for Cc1cccc(-c2ccc(NC(=O)C3CCN(Cc4nccs4)CC3)cc2)c1 ?
Solution: 0 (no)

Problem: Any idea what this test logged for CC(=O)c1cc(CN2CCC(C(=O)Nc3cccc(-c4cccc(F)c4)c3)CC2)cs1 ?
Solution: 1 (yes)
